- TARGET_ENTITY: CXCR7 (Homo sapiens (Human))
- Sequence (P25106 whole entry): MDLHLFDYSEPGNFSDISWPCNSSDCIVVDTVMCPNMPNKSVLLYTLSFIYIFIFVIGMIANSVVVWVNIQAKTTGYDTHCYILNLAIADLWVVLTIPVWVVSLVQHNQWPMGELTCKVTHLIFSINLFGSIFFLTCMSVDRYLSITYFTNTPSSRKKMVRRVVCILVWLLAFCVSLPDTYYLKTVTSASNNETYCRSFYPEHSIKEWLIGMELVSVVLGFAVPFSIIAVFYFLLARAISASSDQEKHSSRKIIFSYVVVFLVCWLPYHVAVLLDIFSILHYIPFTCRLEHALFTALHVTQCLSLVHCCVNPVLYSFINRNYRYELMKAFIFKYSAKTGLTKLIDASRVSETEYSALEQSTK
- Sequence (P32121 whole entry partner): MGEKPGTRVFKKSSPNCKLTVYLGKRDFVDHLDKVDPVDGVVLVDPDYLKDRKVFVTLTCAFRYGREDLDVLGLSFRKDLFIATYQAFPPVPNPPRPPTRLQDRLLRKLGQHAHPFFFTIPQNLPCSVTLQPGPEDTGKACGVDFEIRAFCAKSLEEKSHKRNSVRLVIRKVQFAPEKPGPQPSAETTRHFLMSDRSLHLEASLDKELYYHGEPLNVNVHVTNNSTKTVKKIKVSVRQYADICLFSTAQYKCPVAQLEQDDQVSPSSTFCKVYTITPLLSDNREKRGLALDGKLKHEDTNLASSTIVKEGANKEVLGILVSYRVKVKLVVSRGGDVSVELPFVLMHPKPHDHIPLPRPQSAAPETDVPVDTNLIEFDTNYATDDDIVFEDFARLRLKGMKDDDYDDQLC
- ASSAY_NAME: PathHunter CHO-K1 CXCR7 β-arrestin assay (agonistic activity)
- RECORDED_CONDITIONS: β-arrestin recruitment in PathHunter CHO-K1 CXCR7 β-arrestin cells, 90 minutes at 37° C., geometric mean values
Hi! Could you tag entries with EC50 below 3 nM as y, and those at or above as n? Much appreciated.

Would you please look over these solved cases?
COMPOUND | CATEGORY_LABEL
CCN1CCOc2c(cccc2NCC(=O)N(CCNC(C)(C)C)Cc2ccccc2C(F)(F)F)C1 [Example 70] | n
CN(C)CCN(Cc1ccccc1C(F)(F)F)C(=O)CNc1cccc2c1N(C)CCN(CC1CC1)C2 [Example 49] | y
CN(C)CCN(Cc1ccccc1C(F)(F)F)C(=O)COc1cccc2c1CCN(CC1CC1)CC2 [Example 23] | y
CC(C)(C)NCCN(Cc1ccccc1C(F)(F)F)C(=O)CNc1cccc2c1OCCN(CC1CC1)C2=O [Example 63] | y
CC(C)CN1CCOc2c(cccc2NCC(=O)N(CCN2CCOCC2)Cc2ccccc2C(F)(F)F)C1 [Example 16] | n

In: # TODO verify EC50 < 3 nM strictly for this compound: CC(C)CN1CCOc2c(cccc2NCC(=O)N(CCN2CCC(F)(F)CC2)Cc2ncccc2Cl)C1 [Example 13]
Out: n

In: # TODO verify EC50 < 3 nM strictly for this compound: CC(C)(C)NCCN(Cc1ncccc1Cl)C(=O)CNc1cccc2c1CN(CC1CC1)CCO2 [Example 92]
Out: n
